- tested on: T1, human neonatal Fc receptor (hFcRn) (human, UniProt P55899 24-290; P61769 21-119)
- T1 construct: Biotinylated in the ELISA, Octet and yeast assays; also called human FcRn; huFcRn
- T1 sequence (P55899 24-290 limits assumed, chain 1 of 2): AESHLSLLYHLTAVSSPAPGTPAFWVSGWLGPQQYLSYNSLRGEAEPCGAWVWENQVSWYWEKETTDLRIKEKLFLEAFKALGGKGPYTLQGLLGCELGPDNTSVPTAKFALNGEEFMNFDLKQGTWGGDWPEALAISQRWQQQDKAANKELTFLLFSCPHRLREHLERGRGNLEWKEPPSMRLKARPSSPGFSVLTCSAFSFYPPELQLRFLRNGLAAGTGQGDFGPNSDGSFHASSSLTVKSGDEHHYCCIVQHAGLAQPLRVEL
- T1 sequence (P61769 21-119 limits assumed, chain 2 of 2): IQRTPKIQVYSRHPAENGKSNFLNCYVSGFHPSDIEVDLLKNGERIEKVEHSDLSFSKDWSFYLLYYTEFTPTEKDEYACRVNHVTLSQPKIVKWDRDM
- method notes: phage ELISA pH 6;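 also: higher score means stronger binding and above about 3 to 5 exceeds background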
Listed next: entries and their corresponding ELISA score.
No unit in the answer, only the number.

>  <binder>
L5 isolate with insertion SEQ ID NO: 494 (other) EPKSCDKTHTCPPCPAPELLGGPSVFLFPPKPKDTLMISRTPEVTCVVVDVSHEDPEVKFNWYVDGVEVHNAKTKPREEQYNSTYRVVSVLTVLHQDWLNGKEYKCKVSNKALPAPIEKTISKAKGQPREPQVYTLPPSRDELTKNQVSLTCLVKGFYPSDIAVEWESNGGCCPVYQHCGGGQPENNYKTTPPVLDSDGSFFLYSKLTVDKSRWQQGNVFSCSVMHEALHNHYTQKSLSLSPGK

>  <ELISA score>
21.7

$$$$

Now turn to the next binder.
Query: ELISA score; subject: L5 isolate with insertion SEQ ID NO: 493 (other) EPKSCDKTHTCPPCPAPELLGGPSVFLFPPKPKDTLMISRTPEVTCVVVDVSHEDPEVKFNWYVDGVEVHNAKTKPREEQYNSTYRVVSVLTVLHQDWLNGKEYKCKVSNKALPAPIEKTISKAKGQPREPQVYTLPPSRDELTKNQVSLTCLVKGFYPSDIAVEWESNGGCLLPNMFCGGGQPENNYKTTPPVLDSDGSFFLYSKLTVDKSRWQQGNVFSCSVMHEALHNHYTQKSLSLSPGK
22
